System name: UniProtKB O14939
Assay comment: Evaluation of human PLD2 enzyme inhibitory activity (Amplex Red / choline oxidase fluorescence)
Type: biochemical
Assay context: full-length human PLD2 enzyme; read-out: PLD2 IC50
pIC50: −log10 of the molar value.
Answer each item with its documented pIC50.

Below are 7 compounds. Give each one its pIC50.
1. Cc1cc(F)ccc1C1=NNC(=O)O[C@]12CC[C@@H](C[C@H](C)NC(=O)N1CC3CCCCC3C1)CC2 (mixture of isomers)
2. Cc1cc(C(=O)N[C@@H](C)C[C@H]2CC[C@]3(CC2)OC(=O)NN=C3c2cnc(C3CC3)cc2Cl)[nH]n1
3. Cc1cc(C(=O)N[C@@H](C)C[C@H]2CC[C@]3(CC2)OC(=O)NN=C3c2cnc(N3C[C@@H]4C[C@H]3CO4)cc2C)[nH]n1
4. C[C@@H](C[C@H]1CC[C@]2(CC1)OC(=O)NN=C2c1ccc(F)cc1Cl)NC(=O)c1cc(Cl)no1
5. CNC(=O)C(=O)N[C@@H](C)C[C@H]1CC[C@]2(CC1)OC(=O)NN=C2c1ccc(Br)cc1Br
6. CNC(=O)C(=O)N[C@@H](C)CC1CC[C@]2(C[C@@H]1F)OC(=O)NN=C2c1ccc(F)cc1Br (stereo partly shown)
7. Cc1cc(C(=O)N[C@H](C)CN2CCC3(CC2)OC(=O)NN=C3c2ccc(F)cc2Br)[nH]n1

6.19
> 8.00
> 8.00
> 8.00
> 8.00
> 8.00
6.61

---

System name: full-length human PLD2 (Homo sapiens (Human))
Sequence (O14939 whole entry): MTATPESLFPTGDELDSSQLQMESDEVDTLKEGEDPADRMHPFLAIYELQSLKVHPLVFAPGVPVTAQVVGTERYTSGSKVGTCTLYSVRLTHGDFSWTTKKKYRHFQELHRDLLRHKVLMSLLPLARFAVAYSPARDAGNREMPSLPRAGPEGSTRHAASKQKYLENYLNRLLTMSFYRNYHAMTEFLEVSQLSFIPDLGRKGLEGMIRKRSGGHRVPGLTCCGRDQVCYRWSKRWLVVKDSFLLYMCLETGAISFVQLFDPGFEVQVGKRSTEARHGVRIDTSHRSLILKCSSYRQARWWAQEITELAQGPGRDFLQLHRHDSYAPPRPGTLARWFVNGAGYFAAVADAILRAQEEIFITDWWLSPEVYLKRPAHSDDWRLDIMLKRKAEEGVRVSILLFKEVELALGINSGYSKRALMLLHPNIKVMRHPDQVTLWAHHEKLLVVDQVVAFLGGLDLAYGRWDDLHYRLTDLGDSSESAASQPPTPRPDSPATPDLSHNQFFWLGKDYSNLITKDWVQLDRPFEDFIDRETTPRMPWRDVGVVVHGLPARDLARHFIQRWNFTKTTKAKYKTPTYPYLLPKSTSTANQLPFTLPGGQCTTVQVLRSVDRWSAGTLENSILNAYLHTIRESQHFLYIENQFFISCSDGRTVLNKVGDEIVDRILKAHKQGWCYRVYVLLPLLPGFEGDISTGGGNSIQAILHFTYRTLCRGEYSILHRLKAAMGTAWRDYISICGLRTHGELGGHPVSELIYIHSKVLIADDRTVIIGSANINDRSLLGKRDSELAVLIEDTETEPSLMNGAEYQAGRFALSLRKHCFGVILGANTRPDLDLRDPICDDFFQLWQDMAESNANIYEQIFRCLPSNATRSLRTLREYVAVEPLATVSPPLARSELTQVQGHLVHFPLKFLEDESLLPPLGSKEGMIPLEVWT
Assay comment: Evaluation of human PLD2 enzyme inhibitory activity (Amplex Red / choline oxidase fluorescence)
Format: biochemical
Assay context: full-length human PLD2 enzyme; read-out: PLD2 IC50
Assignment: determine reported pIC50 for the given compounds.
Answers are plain numbers, as −log10 of the molar value.

Would you kindly share the measured pIC50 for Cc1cc(C(=O)N[C@@H](C)C[C@H]2CC[C@]3(CC2)OC(=O)NN=C3c2ccc(F)cc2)[nH]n1 [Example 5] ?
6.77

Entry under review: COc1cc(C)c(C2=NNC(=O)O[C@]23CC[C@@H](C[C@H](C)NC(=O)CC#N)CC3)cn1 [Example 263] . Reported pIC50?
5.35

Requested read-out: pIC50. Entry: C[C@@H](C[C@H]1CC[C@]2(CC1)OC(=O)NN=C2c1ccc(F)cc1Br)NC(=O)c1cn(C)nn1 [Example 76]
7.77

Give the measured pIC50 of CNC(=O)C(=O)N[C@@H](C)C[C@H]1CC[C@]2(CC1)OC(=O)NN=C2c1cnc(C#N)cc1C [Example 188] .
7.48

// input: 3 compounds below; output: pIC50 for each
1. COC(=O)N[C@@H](C)C[C@H]1CC[C@]2(CC1)OC(=O)NN=C2c1ccc(F)cc1C [Example 156]
2. Cc1cc(C(=O)N[C@@H](C)C[C@H]2CC[C@]3(CC2)OC(=O)NN=C3c2ccc(C(=O)O)cc2C)[nH]n1 [Example 201]
3. C[C@@H](CN1CCC2(CC1)OC(=O)NN=C2c1ccc(F)cc1Br)NC(=O)C(=O)NC1CC1 [Example 180]

1: 6.39; 2: 6.43; 3: 7.92

Given the compound C[C@@H](C[C@H]1CC[C@]2(CC1)OC(=O)NN=C2c1ccc(S(C)(=O)=O)cc1Br)NC(=O)c1ccccc1 [Example 49] , what is its reported pIC50?
7.96

---

System name: full-length human PLD1 (Homo sapiens (Human), UniProt Q13393)
Sequence (Q13393 other isoform, or with tags, fused parts or gaps): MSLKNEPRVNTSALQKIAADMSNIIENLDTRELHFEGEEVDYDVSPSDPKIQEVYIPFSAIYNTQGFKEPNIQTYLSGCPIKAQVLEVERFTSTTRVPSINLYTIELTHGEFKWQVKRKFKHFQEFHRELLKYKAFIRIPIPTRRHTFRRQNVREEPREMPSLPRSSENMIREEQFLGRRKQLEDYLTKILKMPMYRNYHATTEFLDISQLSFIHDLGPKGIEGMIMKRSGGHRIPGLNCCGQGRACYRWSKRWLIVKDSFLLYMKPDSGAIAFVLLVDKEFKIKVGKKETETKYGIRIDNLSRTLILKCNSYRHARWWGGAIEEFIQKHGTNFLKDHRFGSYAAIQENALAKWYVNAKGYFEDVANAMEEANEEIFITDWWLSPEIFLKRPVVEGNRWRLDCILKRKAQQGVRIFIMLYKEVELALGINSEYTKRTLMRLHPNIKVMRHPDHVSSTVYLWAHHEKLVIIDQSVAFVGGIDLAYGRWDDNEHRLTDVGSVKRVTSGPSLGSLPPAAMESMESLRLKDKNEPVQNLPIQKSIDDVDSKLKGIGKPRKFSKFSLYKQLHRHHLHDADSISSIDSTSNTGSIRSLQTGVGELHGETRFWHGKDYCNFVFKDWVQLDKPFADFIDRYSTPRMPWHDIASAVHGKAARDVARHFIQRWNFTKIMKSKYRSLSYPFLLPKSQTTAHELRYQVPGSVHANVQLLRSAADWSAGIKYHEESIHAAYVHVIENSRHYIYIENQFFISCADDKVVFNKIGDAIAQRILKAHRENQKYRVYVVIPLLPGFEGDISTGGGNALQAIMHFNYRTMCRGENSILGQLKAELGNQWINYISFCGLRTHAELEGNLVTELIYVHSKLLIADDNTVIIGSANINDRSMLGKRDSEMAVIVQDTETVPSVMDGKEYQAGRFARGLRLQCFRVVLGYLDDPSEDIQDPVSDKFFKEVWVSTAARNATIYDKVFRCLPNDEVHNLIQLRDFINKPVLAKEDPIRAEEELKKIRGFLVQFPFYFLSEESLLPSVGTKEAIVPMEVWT
Assay comment: Evaluation of human PLD1 enzyme inhibitory activity (Amplex Red / choline oxidase fluorescence)
Assay type: biochemical
Assay context: full-length human PLD1 enzyme; read-out: PLD1 IC50
Measurement type: pIC50
Give bare numbers, as −log10 of the molar value.

Consider the reported pIC50 for these molecules:
Notebook: pull reported pIC50 for full-length human PLD1 (Homo sapiens (Human), UniProt Q13393), entry C[C@@H](C[C@H]1CC[C@]2(CC1)OC(=O)NN=C2c1cc(Cl)ccc1Cl)NC(=O)c1cc2ccccn2n1
7.64

# returns recorded pIC50 (system: full-length human PLD1 (Homo sapiens (Human), UniProt Q13393)) for CNC(=O)C(=O)N[C@@H](C)C[C@H]1CC[C@]2(CC1)OC(=O)NN=C2c1cnc(Cl)cc1C
7.57

// lookup pIC50 | system=full-length human PLD1 (Homo sapiens (Human), UniProt Q13393) | key= C[C@@H](C[C@H]1CC[C@]2(CC1)OC(=O)NN=C2c1ccc(S(C)(=O)=O)cc1Cl)NC(=O)c1cc2cc(F)ccc2o1
7.68

I'm curious: which pIC50 was measured for CNC(=O)C(=O)N[C@@H](C)CN1CCC2(CC1)OC(=O)NN=C2c1cc(Br)c(F)cc1Cl tested on full-length human PLD1 (Homo sapiens (Human), UniProt Q13393)?
7.59

Please tell me: pIC50 of CNC(=O)C(=O)N[C@@H](C)C[C@H]1CC[C@]2(CC1)OC(=O)NN=C2c1cnc(N2C[C@H]3C[C@@H]2CO3)cc1C , system full-length human PLD1 (Homo sapiens (Human), UniProt Q13393)?
7.59

// lookup pIC50 | system=full-length human PLD1 (Homo sapiens (Human), UniProt Q13393) | key= CNC(=O)C(=O)N[C@@H](C)C[C@]1(C#N)CC[C@@]2(CC1)OC(=O)NN=C2c1cc(OC(F)F)ccc1Br
7.96

For full-length human PLD1 (Homo sapiens (Human), UniProt Q13393), provide pIC50 of C[C@@H](CN1CCC2(CC1)OC(=O)NN=C2c1ccc(S(C)(=O)=O)cc1Cl)NC(=O)c1cc2cc(F)ccc2o1 please.
7.37

Provide value of pIC50 for this record tested with full-length human PLD1 (Homo sapiens (Human), UniProt Q13393): CNC(=O)C(=O)N[C@@H](C)C[C@H]1CC[C@]2(CC1)OC(=O)NN=C2c1cc(OC)c(F)cc1Br
7.92

Lab note: need pIC50 with full-length human PLD1 (Homo sapiens (Human), UniProt Q13393) for entry CNC(=O)C(=O)N[C@@H](C)C[C@H]1CC[C@]2(CC1)OC(=O)NN=C2c1cccc2c1OC(F)(F)O2 , please look it up.
7.30

Requested read-out pIC50, target or system full-length human PLD1 (Homo sapiens (Human), UniProt Q13393), entry C[C@@H](C[C@H]1CC[C@]2(CC1)OC(=O)NN=C2c1ccc(OC(F)(F)F)cc1Br)NC(=O)c1cc(Cl)no1
7.92

Dear reader, for each entry below, please note its pIC50.
1. CNC(=O)C(=O)N[C@@H](C)CN1CCC2(CC1)OC(=O)NN=C2c1ccc(C#N)cc1Br
2. C[C@@H](C[C@H]1CC[C@]2(CC1)OC(=O)NN=C2c1ccc(F)cc1Cl)NC(=O)C(=O)NC1CC1

1. 7.44
2. 7.55

---

Provide the recorded pIC50 for the entries that follow.
System name: full-length human PLD1 (Homo sapiens (Human), UniProt Q13393)
Assay comment: Evaluation of human PLD1 enzyme inhibitory activity (Amplex Red / choline oxidase fluorescence)
Assay type: biochemical
Assay context: full-length human PLD1 enzyme; read-out: PLD1 IC50
One number for each entry, as −log10 of the molar value.

Dear colleague, I am looking for the recorded pIC50 of the following compound: Cc1cc(C(=O)N[C@@H](C)CN2CCC3(CC2)OC(=O)NN=C3c2cccc(C(F)(F)F)c2Br)[nH]n1
7.68

Hey, can you go through the list below and give me pIC50 for every item?
1. C[C@@H](C[C@H]1CC[C@]2(CC1)OC(=O)NN=C2c1cc(C(C)(C)O)ccc1Br)NC(=O)c1cnn(C)c1
2. Cc1cc(C(=O)N[C@@H](C)C[C@H]2CC[C@]3(CC2)OC(=O)NN=C3c2cnc(C3CC3)cc2Cl)[nH]n1
3. Cc1cc(C(=O)N[C@@H](C)CN2CCC3(CC2)OC(=O)NN=C3c2ccc(F)cc2Cl)[nH]n1
4. C[C@@H](CN1CCC2(CC1)OC(=O)NN=C2c1cc(C#N)ccc1Br)NC(=O)CCC(F)(F)F

7.89
7.82
7.49
6.99

---

System name: full-length human PLD1 (Homo sapiens (Human), UniProt Q13393)
Assay comment: Evaluation of human PLD1 enzyme inhibitory activity (Amplex Red / choline oxidase fluorescence)
Format: biochemical
Assay context: full-length human PLD1 enzyme; read-out: PLD1 IC50
Measurement type: pIC50
Numbers only, as −log10 of the molar value.

Field: pIC50 (full-length human PLD1 (Homo sapiens (Human), UniProt Q13393)). Entry: CNC(=O)C(=O)N[C@@H](C)C[C@H]1CC[C@]2(CC1)OC(=O)NN=C2c1cnc(I)cc1C
7.64

Items follow; give pIC50 for each.
1. CNC(=O)C(=O)N[C@@H](C)CN1CCC2(CC1)OC(=O)NN=C2c1cccc(C(F)(F)F)c1Br
2. CNC(=O)C(=O)N[C@@H](C)CN1CCC2(CC1)OC(=O)NN=C2c1cccc(F)c1Br
3. C[C@@H](CN1CCC2(CC1)OC(=O)NN=C2c1ccc(F)cc1Br)NC(=O)NC1CC1

[7.60, 7.51, 6.89]
